- Assay Info: Unbound clearance in male Sprague-Dawley rat at 0.5 mg/kg, iv
- Format: ADME, organism-based
- Reported Conditions: in vivo
Please note: CL free exactly at 70 mL/min/kg is label 0. Only values below 70 mL/min/kg get label 1.

C[C@H](Nc1ncnc(N)c1C#N)c1nc2ccc(F)cc2n1-c1cncc(F)c1 | label 1
C[C@H](Nc1ncnc(N)c1C#N)c1nc2ccc(F)cc2n1-c1cccnc1 | label 1
C[C@H](Nc1ncnc(N)c1C#N)c1nc2ccc(F)cc2n1-c1ccccn1 | label 0
C[C@H](Nc1ncnc(N)c1C#N)c1nc2ccc(F)cc2n1-c1cccc(S(C)(=O)=O)c1 | label 0
C[C@H](Nc1ncnc(N)c1C#N)c1nc2ccc(F)cc2n1-c1cc(F)cc(F)c1 | label 0

The reported numbers originate from ChEMBL document CHEMBL4715688.
